# study.target: T1, human IL-5 with his-tag (rhIL-5-his) (human, UniProt P05113 20-134)
# T1 sequence: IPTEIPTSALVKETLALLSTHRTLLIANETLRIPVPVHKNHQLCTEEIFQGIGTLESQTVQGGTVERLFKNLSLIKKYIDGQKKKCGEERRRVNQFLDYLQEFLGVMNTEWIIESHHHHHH
# assay.comment: cell-based or functional assay
assay.endpoint: IC50 of blocking IL-5 induced eosinophil adhesion (µg/mL)
Only the number, expressed in µg/mL, is required.

Ask | Recall and state the measured IC50 of blocking IL-5 induced eosinophil adhesion for h1780-017 (antibody, human IgG1, kappa, V domains shown) VH: EVQLVQSGAEVKKPGASVKVSCKASGYTFTEYLIHWVRQAPGQGLEWIGYINPYSGGTVYNEKFKSRATLTVDKSISTAYMEFSRLRSDDTAVYYCARDGGYSDPLDYWGQGTMVTVSS VL: DTVLTQSPATLSLSPGERATLSCRASEGLTSYMHWYQQKPGQAPRLLIYKASNLASGVPARFSGSGSGTDFTLTISSLEPEDFATYFCQQNWNDPWTFGGGTKVEIKR .
Reply | 0.0212
